Data provenance is patent US20250340608A1.

Target: T1, human ferroportin (SLC40A1) fused in frame with GFP, stably expressed in HEK293 cells (human, UniProt Q9NP59 1-571)
T1 sequence (looked up): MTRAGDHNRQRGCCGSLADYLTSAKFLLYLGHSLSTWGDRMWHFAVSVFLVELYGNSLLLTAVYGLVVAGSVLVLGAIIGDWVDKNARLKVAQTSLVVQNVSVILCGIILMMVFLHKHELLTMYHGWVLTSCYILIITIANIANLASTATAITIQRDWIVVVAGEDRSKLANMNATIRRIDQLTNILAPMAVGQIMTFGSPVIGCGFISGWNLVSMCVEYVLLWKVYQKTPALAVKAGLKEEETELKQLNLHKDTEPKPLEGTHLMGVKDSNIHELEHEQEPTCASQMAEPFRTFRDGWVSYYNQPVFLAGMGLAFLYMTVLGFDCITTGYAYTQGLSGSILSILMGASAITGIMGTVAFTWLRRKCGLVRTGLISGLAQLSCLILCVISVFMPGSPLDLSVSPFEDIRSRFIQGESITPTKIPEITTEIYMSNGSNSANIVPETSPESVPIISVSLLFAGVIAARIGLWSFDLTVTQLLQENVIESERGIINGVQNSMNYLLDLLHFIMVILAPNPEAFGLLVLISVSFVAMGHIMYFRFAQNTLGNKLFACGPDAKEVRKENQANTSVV
Assay: cell-based or functional assay
Primed or numbered codes have the meaning given here. Side chains are listed from the residue outwards. * marks the point of attachment. Isovaleryl = CC(C)CC(=O)*; PEG3′ = not defined here; PEG4′ = not defined here
measured.quantity: Potency EC50 (nM)

# binder, measured.quantity, value.units, meas.value
measured = [
    ("Isovaleryl-DTHFPICIFGPRSKGWVC-NH2 (not fully specified (bridges); cysteine pairing not given here) [Compound 2]", "Potency EC50", "nM", 5),
]

I = Isovaleryl-DTHFPCIIFGPRSRGWVCK(PEG4′)-NH2 (not fully specified (bridges); cysteine pairing not given here) [Compound 179]
II = Isovaleryl-DTHFPCIKFEPRSKGWCK-NH2 (not fully specified (bridges); cysteine pairing not given here) [Compound 183]
III = H-DTHFPCIK([PEG3′-Isovaleryl])FGPRSKGWVCK-NH2 (cysteine pairing not given here) [Compound 209]
// query # ascending order, key=Potency EC50 Rank them, then answer with their labels in that order.
// result I, II, III
